# assayProtocol: small molecules captured by biotinylated probe aFGF10 – biochemical, small-molecule microarray, fluorescence 635/667, stem cell growth factor project, primary screen (AID 1071);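 further: score merges 667 nm spot intensity and signal to noise from triplicate slides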
# runParameters: higher = more signal
readoutType: composite z-score
Answer as a number with no unit attached.

Q: composite z-score for COc1ccc([Si](C)(C)[C@H]2[C@H](CC(=O)N3CCC[C@H]3CO)O[C@@]3(C(=O)N(Cc4ccc(N5C(=O)c6cccc7cccc5c67)cc4)c4ccccc43)[C@@H]2C)cc1 ?
Result: 0.751

Q: What does the record list as composite z-score for Cc1ccc(S[C@]2(C(=O)NCC(C)C)CC(=O)N(C3CCCCC3)[C@@H]2c2ccc(CO)cc2I)cc1 ?
Result: 0.384

Q: # get_value(readout='composite z-score', item= CCCCCCCCCCC(O)C1C=CC2C(=O)NC(=O)C2N1Nc1ccccn1 (centres undefined) )
Result: -0.417

Q: Any idea what its composite z-score is? The compound is COCCOC(=O)N1C(=O)[C@@]2(c3cc(C#CCC(C(=O)OC)C(=O)OC)ccc31)[C@H](c1ccc(OCCO)cc1)N1[C@H](c3ccccc3)[C@H](c3ccccc3)OC(=O)[C@H]1[C@@H]2C(N)=O
Result: 0.245

###

# testSystem: Left-right determination factor 2 (Homo sapiens) (UniProt O00292)
# Sequence (O00292 whole entry, looked up): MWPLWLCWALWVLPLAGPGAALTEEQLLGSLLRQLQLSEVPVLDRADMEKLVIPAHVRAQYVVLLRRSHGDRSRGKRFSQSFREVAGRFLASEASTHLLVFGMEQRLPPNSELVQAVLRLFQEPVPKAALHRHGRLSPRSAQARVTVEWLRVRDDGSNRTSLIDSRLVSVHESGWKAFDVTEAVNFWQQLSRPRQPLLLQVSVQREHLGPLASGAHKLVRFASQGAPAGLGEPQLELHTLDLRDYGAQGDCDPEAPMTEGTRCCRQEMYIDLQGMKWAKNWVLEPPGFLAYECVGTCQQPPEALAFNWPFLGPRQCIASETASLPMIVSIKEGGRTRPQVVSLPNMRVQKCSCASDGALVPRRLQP
# assayProtocol: small molecules binding LEFTY2 protein – biochemical, small-molecule microarray, 635 nm fluorescence scan, primary screen (AID 1110)
# runParameters: higher = more signal
Quick reference for composite z-score among some compounds
Enter a number only.

- compound: "O=C1OCC=C[C@H]2OC34C=CCN(CCN5CCOCC5)C(=O)[C@H]3N(CCCCCO)C(=O)[C@@H]4[C@@H]12 (some centres not stated)"
  composite z-score: -0.258
- compound: "CCCNC(=O)[C@@H]1c2ccccc2C(=O)N(CC23CC4CC(CC(C4)C2)C3)[C@H]1c1ccc(CO)cc1"
  composite z-score: 1.03
- compound: "COc1cc(C(O)C2C=CC3C(=O)NC(=O)C3N2Nc2ccc(Cl)cc2Cl)cc(OC)c1OC (configuration not stated)"
  composite z-score: -0.118

Q: Fill in the blank: the reported composite z-score of CC(C)=CCCC(C)=CC(O)C1C=CC2C(=O)N(c3ccccc3)C(=O)C2N1Nc1ccc([N+](=O)[O-])cc1 (configuration not stated) is ____.
Result: -0.183

Q: Return reported composite z-score; argument: COC(=O)[C@@]1(Cc2ccc(OC)cc2)[C@H]2c3cc(C(=O)N4CCCC4)n(Cc4ccc(C)o4)c3C[C@H]2CN1C(=O)c1ccccc1
Result: -0.242

Q: Param item = CN(C)CCCC[C@@H]1NC(=O)[C@H]2C[C@@H](C(=O)NCCCCCCNC(=O)CS)[C@@H](c3ccc(O)cc3)N2C1=O ; retrieve measured composite z-score.
Result: -0.603

Q: For the compound CN(C)C(=O)[C@]1(Cc2ccccc2N=[N+]=[N-])N=C(c2ccc(OCCCO)cc2)O[C@@H]1c1ccccc1CN=[N+]=[N-] , what composite z-score is on record?
Result: 0.234

###

// z-score lookup, one value per entry
# assayProtocol: plasmodial surface anion channel blockers, osmotic lysis – cell-based, P. falciparum Indochina, OD700, 1 h, primary screen (AID 1154)
# runParameters: P. falciparum Indochina infected RBC osmotic lysis, higher = more signal, called active from +8 up or from −8 down
Write the value as a bare number.

- compound: "COC(=O)[C@@]1(Cc2ccc(F)cc2)[C@H]2c3cc(C(=O)N4CCCC4)n(Cc4ccccc4)c3C[C@H]2CN1C(=O)c1ccccc1"
  assayResult: 4.64
- compound: "CC(C)C[C@@H]1NC(=O)[C@@]23C(=O)N[C@@H](Cc4ccccc4)C2[C@H](C)[C@@]2(C)O[C@H]2C3/C=C/C/C=C\\CNC(=O)[C@@H]2CCCN2C1=O (some centres undefined)"
  assayResult: 0.918

Q: So what's the measured z-score for this one? COc1cc(NN2C(C(O)c3ccc(I)cc3)C=CC3C(=O)N(C)C(=O)C32)cc(OC)c1OC (centres undefined)
Result: 0.318

Q: Sample O=C(C=C(CC(O)c1cccc(Cl)c1)OCCF)OCCF (centres undefined) — what was its z-score?
Result: 1.35
